For each of the molecules below, state its growth.
test system: KM12 colon; test: NCI-60 one-dose screen, 48 h (100 = growth as untreated, 0 = no growth, -100 = all killed); conditions: 10 µM unless noted
This is part of a sample that, as a whole, favours compounds with a hit. Of some 83,000 tested, about 20% had one in any assay.
One number for each entry, in %.

The cases that follow already have their growth on record.
>  <molecule>
Cc1nn(-c2ccccc2)c2ncc3c(c12)C(=O)N(Cc1ccccc1)C3=O

>  <unit_symbol>
%

>  <data_value>
85.8

$$$$
>  <molecule>
Nc1nc(N)c([N+](=O)[O-])c(=O)[nH]1

>  <unit_symbol>
%

>  <data_value>
111

$$$$
>  <molecule>
c1ccc2c(c1)[nH]c1c2cc[n+]2cc3c(cc12)CCCC3

>  <unit_symbol>
%

>  <data_value>
26.4

$$$$
>  <molecule>
CC(C)(C)c1cc(O)c(O)c(C(C)(C)C)c1

>  <unit_symbol>
%

>  <data_value>
48.1

$$$$
>  <molecule>
Clc1cc(Cl)c(OCC#CI)cc1Cl

>  <unit_symbol>
%

>  <data_value>
82.1

$$$$
>  <molecule>
COc1ccc(C2=NN(C(C)=O)C(c3cc(OC)c(OC)c(OC)c3)C2)cc1 (stereo not drawn)

>  <unit_symbol>
%

>  <data_value>
60.5

$$$$
>  <molecule>
CC/C(=C\c1ccc(N(C)C)cc1)c1nc2ccccc2c(=O)[nH]1

>  <unit_symbol>
%

>  <data_value>
119

$$$$
>  <molecule>
CCC(C)CC(C)C(=O)c1c(O)ccn(O)c1=O (stereo not drawn)

>  <unit_symbol>
%

>  <data_value>
34.2

$$$$

Required: growth, one value per molecule below.
1. Nc1nc(SCC2(CCl)COC2)c2[nH]cnc2n1
2. Oc1ccc(Cc2ccc(O)c(C3CC(c4ccc(Cl)cc4)=NN3)c2)cc1C1CC(c2ccc(Cl)cc2)=NN1 (stereo not drawn)
3. Cn1c(=O)c2nc(SCc3ccccc3)n(C)c2n(C)c1=O
4. CCN(CC)CCOc1ccc(C2=C(c3ccccc3)CCc3cc(OC)ccc32)cc1
5. COc1ccc2[nH]cc(/C=C3/C(=O)Nc4ccc(F)cc43)c2c1
6. COc1ccc(/C=N\Nc2ccc([N+](=O)[O-])cn2)cc1OC
7. N#CCNc1ccccc1N

Response line:
108
12
104
-18.4
27
44.1
94

Required: growth, one value per molecule below.
1. N=c1ccn2c(n1)O[C@@H]1[C@@H](O)[C@H](CO)O[C@@H]12
2. CN(C)c1ccc2c(c1)/C(=N/O)c1ccccc1-2
3. Cn1cc(-c2csc(-c3c[nH]c4ncccc34)n2)c2cc(Br)cnc21

Response line:
77.4
35.2
63.1
